# system.tested: T1, human PD-L1 on CHO cells (human, UniProt Q9NZQ7 19-290)
# T1 construct: whole, on cells; CHO cells stably expressing PD-L1; also called huPD-L1
# assay.text: flow cytometry, CHO cells stably expressing PD-L1
Simple rule here: MFI at 33.3 nM less than 3000 MFI is class 1, otherwise class 0.

Worked set:
>  <binder>
variant CD80 IgV-Fc D46V/M47I/A71G (Fc fusion, not shown: a dimerising Fc or GST) VIHVTKEVKEVATLSCGHNVSVEELAQTRIYWQKEKKMVLTMMSGVINIWPEYKNRTIFDITNNLSIVILGLRPSDEGTYECVVLKYEKDAFKREHLAEVTLSVKAD

>  <label.value>
class 0

$$$$
>  <binder>
variant CD80 IgV-Fc H18Y/E35D/M47L/A71G/A91S (Fc fusion, not shown: a dimerising Fc or GST) VIHVTKEVKEVATLSCGYNVSVEELAQTRIYWQKDKKMVLTMMSGDLNIWPEYKNRTIFDITNNLSIVILGLRPSDEGTYECVVLKYEKDSFKREHLAEVTLSVKAD

>  <label.value>
class 0

$$$$
>  <binder>
variant CD80 IgV-Fc V22A/E35D/M47L/A71G (Fc fusion, not shown: a dimerising Fc or GST) VIHVTKEVKEVATLSCGHNVSAEELAQTRIYWQKDKKMVLTMMSGDLNIWPEYKNRTIFDITNNLSIVILGLRPSDEGTYECVVLKYEKDAFKREHLAEVTLSVKAD

>  <label.value>
class 0

$$$$
>  <binder>
variant CD80 IgV-Fc E35D/M43I/D46E/A71G/L85M (Fc fusion, not shown: a dimerising Fc or GST) VIHVTKEVKEVATLSCGHNVSVEELAQTRIYWQKDKKMVLTMISGEMNIWPEYKNRTIFDITNNLSIVILGLRPSDEGTYECVVMKYEKDAFKREHLAEVTLSVKAD

>  <label.value>
class 0

$$$$
>  <binder>
variant CD80 IgV-Fc E35D/M47V/N48K/L85M (Fc fusion, not shown: a dimerising Fc or GST) VIHVTKEVKEVATLSCGHNVSVEELAQTRIYWQKDKKMVLTMMSGDVKIWPEYKNRTIFDITNNLSIVILALRPSDEGTYECVVMKYEKDAFKREHLAEVTLSVKAD

>  <label.value>
class 0

$$$$
>  <binder>
variant CD80 IgV-Fc Q27H/E35D/M47I (Fc fusion, not shown: a dimerising Fc or GST) VIHVTKEVKEVATLSCGHNVSVEELAHTRIYWQKDKKMVLTMMSGDINIWPEYKNRTIFDITNNLSIVILALRPSDEGTYECVVLKYEKDAFKREHLAEVTLSVKAD

>  <label.value>
class 0

$$$$
>  <binder>
variant CD80 IgV-Fc E35D/D46E (Fc fusion, not shown: a dimerising Fc or GST) VIHVTKEVKEVATLSCGHNVSVEELAQTRIYWQKDKKMVLTMMSGEMNIWPEYKNRTIFDITNNLSIVILALRPSDEGTYECVVLKYEKDAFKREHLAEVTLSVKAD

>  <label.value>
class 0

$$$$
>  <binder>
variant CD80 IgV-Fc E35D/T41S/N48I (Fc fusion, not shown: a dimerising Fc or GST, also called E35D/T41S/N48T) VIHVTKEVKEVATLSCGHNVSVEELAQTRIYWQKDKKMVLSMMSGDMTIWPEYKNRTIFDITNNLSIVILALRPSDEGTYECVVLKYEKDAFKREHLAEVTLSVKAD

>  <label.value>
class 1

$$$$

Strictly below 3000 MFI: is that where MFI at 33.3 nM of variant CD80 IgV-Fc E35D/D46E/M47I (Fc fusion, not shown: a dimerising Fc or GST) VIHVTKEVKEVATLSCGHNVSVEELAQTRIYWQKDKKMVLTMMSGEINIWPEYKNRTIFDITNNLSIVILALRPSDEGTYECVVLKYEKDAFKREHLAEVTLSVKAD sits? class 0

Dear reviewer, please state whether variant CD80 IgV-Fc M47I/A71G (Fc fusion, not shown: a dimerising Fc or GST) VIHVTKEVKEVATLSCGHNVSVEELAQTRIYWQKEKKMVLTMMSGDINIWPEYKNRTIFDITNNLSIVILGLRPSDEGTYECVVLKYEKDAFKREHLAEVTLSVKAD has MFI at 33.3 nM strictly beneath 3000 MFI. class 0

Check if MFI at 33.3 nM falls below 3000 MFI for variant CD80 IgV-Fc E35D/D46E/A91G (Fc fusion, not shown: a dimerising Fc or GST) VIHVTKEVKEVATLSCGHNVSVEELAQTRIYWQKDKKMVLTMMSGEMNIWPEYKNRTIFDITNNLSIVILALRPSDEGTYECVVLKYEKDGFKREHLAEVTLSVKAD . class 1

Does the reported MFI at 33.3 nM of variant CD80 IgV-Fc H18Y/E35D/M47V/N48K (Fc fusion, not shown: a dimerising Fc or GST) VIHVTKEVKEVATLSCGYNVSVEELAQTRIYWQKDKKMVLTMMSGDVKIWPEYKNRTIFDITNNLSIVILALRPSDEGTYECVVLKYEKDAFKREHLAEVTLSVKAD stay below 3000 MFI? class 0

Record variant CD80 IgV-Fc E35D/M47L/A71G (Fc fusion, not shown: a dimerising Fc or GST) VIHVTKEVKEVATLSCGHNVSVEELAQTRIYWQKDKKMVLTMMSGDLNIWPEYKNRTIFDITNNLSIVILGLRPSDEGTYECVVLKYEKDAFKREHLAEVTLSVKAD : is its MFI at 33.3 nM strictly below 3000 MFI? class 0
